- Assay comment: total protein half-life in vivo (active degradation + dilution); higher = more stable protein
- Measurement context: E. coli NCM3722 delta-clpP delta-lon delta-hslV; growth: N-lim chemostat; doubling time 6 h
Response key: criterion met means total protein half-life in vivo >= 4 h; criterion not met means total protein half-life in vivo < 4 h.

Kindly determine if total protein half-life in vivo recorded for MKKFAAVIAVMALCSAPVMAAEQGGFSGPSATQSQAGGFQGPNGSVTTVESAKSLRDDTWVTLRGNIVERISDDLYVFKDASGTINVDIDHKRWNGVTVTPKDTVEIQGEVDKDWNSVEIDVKQIRKVNP [P0ADU5] is above or exactly 4 h. criterion not met

Answer whether total protein half-life in vivo of MSALNKKSFLTYLKEGGIYVVLLVLLAIIIFQDPTFLSLLNLSNILTQSSVRIIIALGVAGLIVTQGTDLSAGRQVGLAAVVAATLLQSMDNANKVFPEMATMPIALVILIVCAIGAVIGLINGLIIAYLNVTPFITTLGTMIIVYGINSLYYDFVGASPISGFDSGFSTFAQGFVALGSFRLSYITFYALIAVAFVWVLWNKTRFGKNIFAIGGNPEAAKVSGVNVGLNLLMIYALSGVFYAFGGMLEAGRIGSATNNLGFMYELDAIAACVVGGVSFSGGVGTVIGVVTGVIIFTVINYGLTYIGVNPYWQYIIKGAIIIFAVALDSLKYARKK is greater than or equal to 4 h. criterion not met

hey, is total protein half-life in vivo for this one >= 4 h? MSKTFARSSLCALSMTIMTAHAAEPPTNLDKPEGRLDIIAWPGYIERGQTDKQYDWVTQFEKETGCAVNVKTAATSDEMVSLMTKGGYDLVTASGDASLRLIMGKRVQPINTALIPNWKTLDPRVVKGDWFNVGGKVYGTPYQWGPNLLMYNTKTFPTPPDSWQVVFVEQNLPDGKSNKGRVQAYDGPIYIADAALFVKATQPQLGISDPYQLTEEQYQAVLKVLRAQHSLIHRYWHDTTVQMSDFKNEGVVASSAWPYQANALKAEGQPVATVFPKEGVTGWADTTMLHSEAKHPVCAYKWMNWSLTPKVQGDVAAWFGSLPVVPEGCKASPLLGEKGCETNGFNYFDKIAFWKTPIAEGGKFVPYSRWTQDYIAIMGGR criterion met

Threshold query (total protein half-life in vivo >= 4 h) on MLRFSANLSMLFGEYDFLARFEKAAQCGFRGVEFMFPYDYDIEELKHVLASNKLEHTLHNLPAGDWAAGERGIACIPGREEEFRDGVAAAIRYARALGNKKINCLVGKTPAGFSSEQIHATLVENLRYAANMLMKEDILLLIEPINHFDIPGFHLTGTRQALKLIDDVGCCNLKIQYDIYHMQRMEGELTNTMTQWADKIGHLQIADNPHRGEPGTGEINYDYLFKVIENSDYNGWVGCEYKPQTTTEAGLRWMDPYR criterion met

Quick check: does MKAFDLHRMAFDKVPFDFLGEVALRSLYTFVLVFLFLKMTGRRGVRQMSLFEVLIILTLGSAAGDVAFYDDVPMVPVLIVFITLALLYRLVMWLMAHSEKLEDLLEGKPVVIIEDGELAWSKLNNSNMTEFEFFMELRLRGVEQLGQVRLAILETNGQISVYFFEDDKVKPGLLILPSDCTQRYKVVPESADYACIRCSEIIHMKAGEKQLCPRCANPEWTKASRAKRVT have total protein half-life in vivo greater than or equal to 4 h? criterion met

Determine whether measured total protein half-life in vivo meets or exceeds 4 h for MNTPAQLSLPLYLPDDETFASFWPGDNSSLLAALQNVLRQEHSGYIYLWAREGAGRSHLLHAACAELSQRGDAVGYVPLDKRTWFVPEVLDGMEHLSLVCIDNIECIAGDELWEMAIFDLYNRILESGKTRLLITGDRPPRQLNLGLPDLASRLDWGQIYKLQPLSDEDKLQALQLRARLRGFELPEDVGRFLLKRLDREMRTLFMTLDQLDRASITAQRKLTIPFVKEILKL criterion met
